Biological target: T1, His-tagged CEACAM1 (human, UniProt P13688 35-428)
T1 construct: 45 kDa SPR analyte; also called CEACAM1-HIS; CEACAM1 analyte
T1 sequence: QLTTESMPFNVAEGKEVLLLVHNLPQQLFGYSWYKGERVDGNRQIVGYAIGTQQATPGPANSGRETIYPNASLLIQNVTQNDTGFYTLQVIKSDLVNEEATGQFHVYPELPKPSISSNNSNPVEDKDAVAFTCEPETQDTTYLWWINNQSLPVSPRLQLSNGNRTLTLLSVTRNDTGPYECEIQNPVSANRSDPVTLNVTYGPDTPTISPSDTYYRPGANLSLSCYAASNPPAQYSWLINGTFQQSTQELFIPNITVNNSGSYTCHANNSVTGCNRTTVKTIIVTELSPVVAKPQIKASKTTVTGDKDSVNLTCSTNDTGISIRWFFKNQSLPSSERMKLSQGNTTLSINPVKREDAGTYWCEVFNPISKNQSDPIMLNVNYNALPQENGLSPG
Test: SPR single-cycle, supernatant IgG captured
Exercise: for every item that follows, state its recorded pKd.
Numbers only, as −log10 of the molar value.

Sample answers from the record:
8H3_9E5/CP08F05 (antibody, IgG4, V domains shown, IgG4 (S241P), kappa) VH: EVQLLESGGGLVQPGGSLRLSCAASGFIFSSHGMSWVRQAPGKGLEWVATISSGGTYTYYPDSVKGRFTISRDNSKNTLYLQMNSLKAEDTAMYYCARHGFDYFPYWFAHWGQGTLVTVSS VL: EIVLTQSPATLSLSPGERATLSCRANSAVSYMYWYQQKPGQAPRPWIYLTSNRATGVPARFSGSGSGTDYTLTISSLEPEDFAVYYCQQWTSNPPTFGQGTKLEIK : 6.55
8H3_9C2 (CDR1)/Vκ8 S29A (antibody, IgG4, V domains shown, IgG4 (S241P), kappa) VH: EVQLLESGGGLVQPGGSLRLSCAASEFTFSDHAMSWVRQAPGKGLEWVATISSGGTYTYYPDSVKGRFTISRDNSKNTLYLQMNSLKAEDTAMYYCARHDFDYFPYWFAHWGQGTLVTVSS VL: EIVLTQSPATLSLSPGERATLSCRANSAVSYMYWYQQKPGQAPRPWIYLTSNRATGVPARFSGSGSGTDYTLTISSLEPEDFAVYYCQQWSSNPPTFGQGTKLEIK : 6.68

Parameters: items (list). Returns: pKd for each item.
1. 9B3_9E5/CP08E05 (antibody, IgG4, V domains shown, IgG4 (S241P), kappa) VH: EVQLLESGGGLVQPGGSLRLSCAASGFTFNAHAISWVRQAPGKGLEWVATISSGGTYTYYPDSVKGRFTISRDNSKNTLYLQMNSLKAEDTAMYYCARHGFDYDAAWFAYWGQGTLVTVSS VL: EIVLTQSPATLSLSPGERATLSCRANSAVSYMYWYQQKPGQAPRPWIYLTSNRATGVPARFSGSGSGTDYTLTISSLEPEDFAVYYCQQWTTNPPTFGQGTKLEIK
2. 8H3_9B3/CP08E05 (antibody, IgG4, V domains shown, IgG4 (S241P), kappa) VH: EVQLLESGGGLVQPGGSLRLSCAASGFTFNAHAISWVRQAPGKGLEWVATISSGGTYTYYPDSVKGRFTISRDNSKNTLYLQMNSLKAEDTAMYYCARHDFDYFPYWFAHWGQGTLVTVSS VL: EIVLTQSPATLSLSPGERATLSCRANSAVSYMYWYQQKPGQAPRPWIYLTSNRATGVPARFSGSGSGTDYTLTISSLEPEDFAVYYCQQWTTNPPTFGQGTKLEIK
3. 9B3_9E5/CP08F05 (antibody, IgG4, V domains shown, IgG4 (S241P), kappa) VH: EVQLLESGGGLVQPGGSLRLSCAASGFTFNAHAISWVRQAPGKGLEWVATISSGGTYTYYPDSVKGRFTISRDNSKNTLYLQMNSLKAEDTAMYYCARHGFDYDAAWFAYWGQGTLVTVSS VL: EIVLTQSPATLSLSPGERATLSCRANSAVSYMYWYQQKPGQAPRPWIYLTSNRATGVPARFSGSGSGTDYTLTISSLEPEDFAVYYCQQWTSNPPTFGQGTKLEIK

Completion:
[7.17, 7.11, 7.02]

# credit: patent US20250074980A1
